molecular target: Scrib PDZ-1 domain (Homo sapiens, UniProt Q14160); construct: ROC curves of DomPep prediction for the three Scrib PDZ-1/2/3 domains; experiment: In-solution fluorescence polarization binding of peptides to Scrib PDZ1; conditions: Kd value of 100 µM applied as binding cutoff, NB without definition, read-out: Kd (µM) PDZ1
Sequence (Q14160 728-815 limits assumed): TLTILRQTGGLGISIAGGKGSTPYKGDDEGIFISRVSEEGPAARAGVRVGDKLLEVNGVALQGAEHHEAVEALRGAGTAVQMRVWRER
Residues, ends and D or L forms follow the SMILES beside them.
Known Kd of a selection of compounds

The following compounds have reported results that may help.
{"compound": "CC(C)C[C@H](NC(=O)[C@@H](NC(=O)[C@H](CC(N)=O)NC(=O)[C@@H](N)CCCNC(=N)N)[C@@H](C)O)C(=O)N[C@@H](Cc1ccc(O)cc1)C(=O)N[C@@H](Cc1ccccc1)C(=O)N[C@@H](CO)C(=O)N[C@H](C(=O)N[C@@H](CC(=O)O)C(=O)N[C@H](C(=O)O)C(C)C)[C@@H](C)O [ABR] (H-RNTLYFSTDV-OH)", "Kd": "12.5 µM"}
{"compound": "CC(C)[C@H](NC(=O)[C@H](CO)NC(=O)[C@H](CCCCN)NC(=O)[C@H](CCCCN)NC(=O)[C@H](CO)NC(=O)[C@H](CCCCN)NC(=O)[C@H](CCCCN)NC(=O)[C@H](CCCCN)NC(=O)[C@H](CCC(=O)O)NC(=O)[C@H](C)N)C(=O)O [PSMA8] (H-AEKKKSKKSV-OH)", "Kd": "> 100 µM"}

Turning now to a further compound:
# input Indicate its recorded Kd; the compound in question is CC[C@H](C)[C@H](NC(=O)[C@H](C)NC(=O)[C@H](CO)NC(=O)[C@H](CC(C)C)NC(=O)[C@H](CC(C)C)NC(=O)[C@@H](N)CCC(=O)O)C(=O)N[C@@H](CCC(=O)O)C(=O)N[C@@H](CCCCN)C(=O)N[C@@H](CC(C)C)C(=O)N[C@@H](CC(C)C)C(=O)O [UBXD1] (H-ELLSAIEKLL-OH; N-terminus and C-terminus assumed)
# output > 100 µM

----------
Known Kd of a selection of compounds
target: Scrib PDZ-2 domain (Homo sapiens, UniProt Q14160); construct: ROC curves of DomPep prediction for the three Scrib PDZ-1/2/3 domains; experiment: In-solution fluorescence polarization binding of peptides to Scrib PDZ2; settings: Kd value of 100 µM applied as binding cutoff, NB without definition, read-out: Kd (µM) PDZ2
Sequence (Q14160 862-950 limits assumed): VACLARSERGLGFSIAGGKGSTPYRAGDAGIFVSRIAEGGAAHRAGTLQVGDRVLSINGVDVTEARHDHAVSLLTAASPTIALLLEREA
Residues, ends and D or L forms follow the SMILES beside them.

The following compounds have reported results that may help.
{"compound": "CC[C@H](C)[C@H](NC(=O)[C@H](C)NC(=O)[C@H](CO)NC(=O)[C@H](CC(C)C)NC(=O)[C@H](CC(C)C)NC(=O)[C@@H](N)CCC(=O)O)C(=O)N[C@@H](CCC(=O)O)C(=O)N[C@@H](CCCCN)C(=O)N[C@@H](CC(C)C)C(=O)N[C@@H](CC(C)C)C(=O)O [UBXD1] (H-ELLSAIEKLL-OH; N-terminus and C-terminus assumed)", "assay value": "> 100 µM"}
{"compound": "CC(C)C[C@H](NC(=O)[C@H](CCC(=O)O)NC(=O)[C@@H](NC(=O)[C@H](CC(=O)O)NC(=O)[C@H](Cc1ccc(O)cc1)NC(=O)[C@H](CCCNC(=N)N)NC(=O)[C@H](C)NC(=O)[C@H](CO)NC(=O)[C@@H](N)CCC(N)=O)[C@@H](C)O)C(=O)O [ZO2] (H-QSARYDTEL-OH)", "assay value": "> 100 µM"}

Turning now to a further compound:
# input Indicate its recorded Kd; the compound in question is CC(C)[C@H](NC(=O)[C@H](CO)NC(=O)[C@@H](NC(=O)[C@@H](NC(=O)[C@@H](NC(=O)[C@H](CCCNC(=N)N)NC(=O)[C@@H](NC(=O)[C@H](CCCCN)NC(=O)[C@H](C)NC(=O)[C@@H](N)CO)C(C)C)[C@@H](C)O)C(C)C)[C@@H](C)O)C(=O)O [RASL11B] (H-SAKVRTVTSV-OH)
# output > 100 µM
